// data source = PubChem BioAssay (NCI)

Assay: NCI Yeast Anticancer Drug Screen. Data for the cln2 rad14 strain (AID 165);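 note: 0% = growth equal to vehicle treated cultures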
Settings: S. cerevisiae cln2 rad14 strain, at 50.0 µM (retest, dose inferred, filed as 5.0), active compounds read high
About 79,000 compounds went through this panel and 15% of them were active in at least one assay; those are over-represented in the sample as a whole.
Overview of recorded growth inhibition for various molecules
// return numeric value only (unit: %, not printed)

molecule: Cc1nc(Nc2ccc(Cl)cc2)sc1C(=O)NNC(=O)C(=O)NN
growth inhibition [%]: -10

molecule: CC1(c2ccccc2)Nc2ccccc2C1=Nc1ccccc1 (centres undefined)
growth inhibition [%]: 75

molecule: Cc1cccc(C[N+](C)(C)CCCO)c1C
growth inhibition [%]: 1

molecule: O=P(Nc1ccccc1)(OCc1ccccc1)OCc1ccccc1
growth inhibition [%]: 99

Here's the next entry for you.
Task item: Give its growth inhibition value. Item: O=C(OCc1ccccc1)c1ccc(O)cc1
Reply: 39
